B1: tRNA (parent)
chain: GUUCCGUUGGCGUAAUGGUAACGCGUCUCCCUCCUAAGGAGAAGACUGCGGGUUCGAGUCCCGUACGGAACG

Variants of: B1
Assay: yeast fitness relative to wild type (ratio to wild type); higher = fitter; tRNA-Arg(CCU), competitive growth, 37 C, YPD
This sample holds only a part of the variants without activity.
endpointLabel: yeast fitness

GUUCCGUUGGCGUAAUGGUAACGGGUCUCGCUCCUAAGGAGAAGACUGCGGGUUCGAGUCCCGUAUGGAACG [C24G C30G C66U]	≤ 0.5
GUUCCGUUGGCGUAAUGGUAACCCGUCUCCCUCCUAAGGACAAGACUGUGGGUUCGAGUCCCGUACGGAACG [G23C G41C C49U]	≤ 0.5
GUUCCGUCGGCGUAGUGGUAACGCGUCUCCCUCCUAAGGAGAAGACUGCGGGUUCGAGUCCCGUACGGAACG [U8C A15G]	0.969
GUUCCGUUGGCGUAAUGGUAACGCGUCUCCCUCCUCAGGAGAAGACUGCGGGUUCGAGUCGCGUACGGAACG [A36C C61G]	0.609
GUCUCGUUGGCGUAAUGGUAACGCGUUUCACUCCUAAGGACAAGACUGAGGGUUGGAGUCACGUACGGAACG [U3C C4U C27U C30A G41C C49A C55G C61A]	≤ 0.5

Continue with the next variant.
Entry GUUCCGUUGGCGUAAUGGUAACGGGUCUCCCUCCUAAGGAGAAGACUGCGGGUUCGAGACCCGUACGGAUCG [C24G U59A A70U] ; yeast fitness = ≤ 0.5
